Where do the numbers come from? From paper doi:10.1101/2024.04.17.589937v1.

System: EV-D68
assay notes: microbe, parasite or virus in culture
condition context: Enterovirus D, EVD68, RD, read-out: EV EC50 (µM)
experimental readout: EC50 (µM)
Give the value, in units of µM, as a plain number.

Task item: Reported EC50, compound COC(=O)[C@H](C)N[P@](=O)(OC[C@@]1(C#N)O[C@@H](c2ccc3c(N)ncnn23)[C@H](OC(=O)C(C)C)[C@@H]1OC(=O)C(C)C)Oc1ccccc1 : ____
Reply: 0.09

* * *

Test system: LLC-MK2
condition context: monkey, llc-mk2 cells
experimental readout: CC50

Task item: Given the entry COC(=O)[C@H](C)N[P@](=O)(OC[C@@]1(C#N)O[C@@H](c2ccc3c(N)ncnn23)[C@H](OC(=O)C(C)C)[C@@H]1OC(=O)C(C)C)Oc1ccccc1 , report its measured CC50.
Reply: > 2 µM

* * *

tested target: DNA Pol γ (Homo sapiens)
Sequence (Q9UHN1 26-485): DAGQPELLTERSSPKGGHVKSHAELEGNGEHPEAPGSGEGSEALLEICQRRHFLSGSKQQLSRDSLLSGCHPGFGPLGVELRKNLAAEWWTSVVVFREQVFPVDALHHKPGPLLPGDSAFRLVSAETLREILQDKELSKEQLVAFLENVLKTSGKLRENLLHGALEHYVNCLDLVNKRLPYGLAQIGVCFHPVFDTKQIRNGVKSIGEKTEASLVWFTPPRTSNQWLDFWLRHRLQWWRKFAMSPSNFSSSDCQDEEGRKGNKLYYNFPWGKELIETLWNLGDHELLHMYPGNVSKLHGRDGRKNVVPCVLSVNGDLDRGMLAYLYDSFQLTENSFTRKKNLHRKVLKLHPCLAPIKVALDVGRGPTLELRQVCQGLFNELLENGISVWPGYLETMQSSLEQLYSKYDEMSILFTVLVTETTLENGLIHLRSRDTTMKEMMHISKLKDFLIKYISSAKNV
Sequence (P54098 whole entry): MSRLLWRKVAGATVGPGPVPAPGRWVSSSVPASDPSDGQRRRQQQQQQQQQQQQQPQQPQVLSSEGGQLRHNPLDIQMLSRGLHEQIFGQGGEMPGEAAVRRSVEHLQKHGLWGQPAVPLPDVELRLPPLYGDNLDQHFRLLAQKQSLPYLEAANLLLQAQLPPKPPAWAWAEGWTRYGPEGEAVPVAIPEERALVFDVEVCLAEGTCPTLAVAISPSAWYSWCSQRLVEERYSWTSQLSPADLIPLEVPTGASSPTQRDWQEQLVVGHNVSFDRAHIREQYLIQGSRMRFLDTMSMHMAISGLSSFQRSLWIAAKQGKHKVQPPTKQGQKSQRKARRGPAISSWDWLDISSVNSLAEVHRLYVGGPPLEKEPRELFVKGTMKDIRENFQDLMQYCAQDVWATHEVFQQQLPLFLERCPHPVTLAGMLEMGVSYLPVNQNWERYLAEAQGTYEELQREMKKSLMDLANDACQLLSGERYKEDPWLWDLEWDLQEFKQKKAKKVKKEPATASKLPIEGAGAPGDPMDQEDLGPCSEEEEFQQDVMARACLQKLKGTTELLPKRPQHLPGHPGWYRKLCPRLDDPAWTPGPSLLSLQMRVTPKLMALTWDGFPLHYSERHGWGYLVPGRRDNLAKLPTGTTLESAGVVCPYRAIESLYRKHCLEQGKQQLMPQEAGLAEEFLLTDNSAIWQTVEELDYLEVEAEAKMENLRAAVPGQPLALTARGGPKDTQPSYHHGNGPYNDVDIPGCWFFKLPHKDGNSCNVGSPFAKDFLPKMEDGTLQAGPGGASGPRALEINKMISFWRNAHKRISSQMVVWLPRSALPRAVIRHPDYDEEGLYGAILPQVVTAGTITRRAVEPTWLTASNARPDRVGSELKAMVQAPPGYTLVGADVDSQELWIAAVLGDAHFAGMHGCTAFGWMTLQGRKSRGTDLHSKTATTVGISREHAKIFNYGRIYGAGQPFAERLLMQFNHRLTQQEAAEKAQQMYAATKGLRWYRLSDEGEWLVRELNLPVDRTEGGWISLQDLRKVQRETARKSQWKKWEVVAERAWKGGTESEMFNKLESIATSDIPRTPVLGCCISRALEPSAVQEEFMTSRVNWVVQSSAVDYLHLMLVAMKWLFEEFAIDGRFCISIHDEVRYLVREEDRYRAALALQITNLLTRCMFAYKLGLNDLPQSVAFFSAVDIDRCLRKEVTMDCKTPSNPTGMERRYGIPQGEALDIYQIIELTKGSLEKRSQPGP
pIC50: −log10 of the molar value.
experimental readout: pIC50

Task item: Which measured pIC50 value corresponds to N#C[C@]1(COP(=O)(O)OP(=O)(O)OP(=O)(O)O)O[C@@H](c2ccc3c(N)ncnn23)[C@H](O)[C@@H]1O ?
Reply: < 3.70

* * *

tested target: human mitochondrial RNA polymerase (POLRMT) (Homo sapiens, UniProt O00411)
Sequence (O00411 42-1230): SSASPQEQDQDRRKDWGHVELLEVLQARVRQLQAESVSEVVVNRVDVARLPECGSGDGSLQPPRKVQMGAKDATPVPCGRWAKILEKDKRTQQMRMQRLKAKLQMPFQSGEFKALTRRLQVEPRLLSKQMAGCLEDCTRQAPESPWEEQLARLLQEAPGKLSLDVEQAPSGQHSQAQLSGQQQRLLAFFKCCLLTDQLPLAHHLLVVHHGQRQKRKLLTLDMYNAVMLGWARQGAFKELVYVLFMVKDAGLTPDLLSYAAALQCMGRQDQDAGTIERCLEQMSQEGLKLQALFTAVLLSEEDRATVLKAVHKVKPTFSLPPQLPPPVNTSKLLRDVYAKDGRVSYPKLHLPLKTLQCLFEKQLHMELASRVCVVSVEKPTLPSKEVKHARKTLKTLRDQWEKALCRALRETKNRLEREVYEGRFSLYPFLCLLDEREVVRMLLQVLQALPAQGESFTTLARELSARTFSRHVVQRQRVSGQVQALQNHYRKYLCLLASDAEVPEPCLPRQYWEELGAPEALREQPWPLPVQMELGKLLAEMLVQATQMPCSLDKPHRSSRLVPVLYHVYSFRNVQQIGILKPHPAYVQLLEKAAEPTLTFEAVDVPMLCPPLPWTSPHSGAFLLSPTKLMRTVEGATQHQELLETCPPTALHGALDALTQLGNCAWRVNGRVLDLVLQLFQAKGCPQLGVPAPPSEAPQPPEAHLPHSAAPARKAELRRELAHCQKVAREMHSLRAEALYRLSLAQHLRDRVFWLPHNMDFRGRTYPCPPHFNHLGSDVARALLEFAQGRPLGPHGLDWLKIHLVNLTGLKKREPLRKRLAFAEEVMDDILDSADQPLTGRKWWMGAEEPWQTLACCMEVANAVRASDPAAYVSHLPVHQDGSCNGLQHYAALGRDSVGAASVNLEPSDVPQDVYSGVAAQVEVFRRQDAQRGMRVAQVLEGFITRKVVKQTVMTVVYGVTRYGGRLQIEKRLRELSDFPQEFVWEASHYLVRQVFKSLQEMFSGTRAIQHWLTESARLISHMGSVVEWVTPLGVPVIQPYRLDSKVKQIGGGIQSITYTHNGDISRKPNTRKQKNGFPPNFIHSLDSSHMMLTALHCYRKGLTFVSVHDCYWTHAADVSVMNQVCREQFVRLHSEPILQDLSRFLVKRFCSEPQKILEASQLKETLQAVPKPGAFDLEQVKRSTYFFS
experimental readout: IC50

Task item: So what IC50 did N#C[C@]1(COP(=O)(O)OP(=O)(O)OP(=O)(O)O)O[C@@H](c2ccc3c(N)ncnn23)[C@H](O)[C@@H]1O [2-NTP] get with human mitochondrial RNA polymerase (POLRMT) (Homo sapiens, UniProt O00411)?
Reply: > 200 µM

* * *

Tested on: Human rhinovirus A16 RV-A 16
condition context: read-out: H1 HeLa CC50, h1 hela cells, 96 h
experimental readout: CC50 (µM)
Give just the number in µM; leave the unit off.

Task item: Consider the molecule COC(=O)[C@H](C)N[P@](=O)(OC[C@@]1(C#N)O[C@@H](c2ccc3c(N)ncnn23)[C@H](OC(=O)C(C)C)[C@@H]1OC(=O)C(C)C)Oc1ccccc1 and give its measured CC50.
Reply: 22.2

* * *

assay notes: in vitro
condition context: human, a549-hace2 cells
experimental readout: CC50 at 28 h (µM)
Report the value in µM with no unit label.

Task item: // CC50 at 28 h lookup, key: COC(=O)[C@H](C)N[P@](=O)(OC[C@@]1(C#N)O[C@@H](c2ccc3c(N)ncnn23)[C@H](OC(=O)C(C)C)[C@@H]1OC(=O)C(C)C)Oc1ccccc1 [compound 1, GS-7682]
Reply: 21.1

* * *

Test system: MDCK
condition context: read-out: MDCK CC50, dog
experimental readout: CC50

Task item: Provide value of CC50 for this record tested with MDCK: COC(=O)[C@H](C)N[P@](=O)(OC[C@@]1(C#N)O[C@@H](c2ccc3c(N)ncnn23)[C@H](OC(=O)C(C)C)[C@@H]1OC(=O)C(C)C)Oc1ccccc1
Reply: > 2000 nM

* * *

System: EV-D68
condition context: read-out: RD CC50; human, rd cells
experimental readout: CC50

Task item: Would you kindly share the measured CC50 for COC(=O)[C@H](C)N[P@](=O)(OC[C@@]1(C#N)O[C@@H](c2ccc3c(N)ncnn23)[C@H](OC(=O)C(C)C)[C@@H]1OC(=O)C(C)C)Oc1ccccc1 ?
Reply: > 2000 nM
